Target: human DGKα (Homo sapiens (Human))
Sequence (P23743 other isoform, or with tags, fused parts or gaps): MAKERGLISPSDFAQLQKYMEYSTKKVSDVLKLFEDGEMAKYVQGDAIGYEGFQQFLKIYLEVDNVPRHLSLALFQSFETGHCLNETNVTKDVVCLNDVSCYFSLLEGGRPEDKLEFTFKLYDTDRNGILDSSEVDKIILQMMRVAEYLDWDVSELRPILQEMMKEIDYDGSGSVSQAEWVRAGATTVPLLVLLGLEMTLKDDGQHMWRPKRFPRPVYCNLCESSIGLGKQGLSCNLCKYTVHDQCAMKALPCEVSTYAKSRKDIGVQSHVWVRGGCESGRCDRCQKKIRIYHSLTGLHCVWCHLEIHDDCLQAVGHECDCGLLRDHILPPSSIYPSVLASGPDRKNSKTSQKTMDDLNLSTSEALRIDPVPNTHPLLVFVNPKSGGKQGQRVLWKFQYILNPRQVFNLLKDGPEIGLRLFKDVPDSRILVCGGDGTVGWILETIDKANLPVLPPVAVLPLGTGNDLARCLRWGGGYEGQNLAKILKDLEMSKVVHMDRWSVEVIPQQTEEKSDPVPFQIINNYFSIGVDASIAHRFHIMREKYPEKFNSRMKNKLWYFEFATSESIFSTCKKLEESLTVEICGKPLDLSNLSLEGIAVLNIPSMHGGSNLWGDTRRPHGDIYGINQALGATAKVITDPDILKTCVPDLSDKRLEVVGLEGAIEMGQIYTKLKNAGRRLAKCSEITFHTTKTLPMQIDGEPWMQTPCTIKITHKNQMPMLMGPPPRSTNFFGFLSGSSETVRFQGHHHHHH
Experiment: biochemical
Settings: detergent/lipid micelle substrate; read-out: DGKα IC50
Flag rule - IC50 less than 2000 nM flags 1 (yes); the remaining entries get 0 (no).

{"molecule": "Cn1c(=O)c(C#N)c(N2CCN(C(CO)c3ccc(F)cc3)CC2)c2nc(Br)ccc21 (stereo not drawn) [Example 31]", "system_under_test": "human DGKα (Homo sapiens (Human))", "label_value": "1 (yes)"}
{"molecule": "Cn1c(=O)c(C#N)c(N2CCN(Cc3ccccc3NS(C)(=O)=O)CC2)c2nc(Br)ccc21 [Example 212]", "system_under_test": "human DGKα (Homo sapiens (Human))", "label_value": "0 (no)"}
{"molecule": "CC(c1ccc(F)cc1)N1CCN(c2c([N+](=O)[O-])c(=O)n(CC#N)c3ccc(C#N)nc23)CC1 (stereo not drawn) [Example 151]", "system_under_test": "human DGKα (Homo sapiens (Human))", "label_value": "0 (no)"}
{"molecule": "CC(c1ccc(F)cc1)N1CCN(c2c(C#N)c(=O)n(CC3CC3)c3ccc(Br)nc23)CC1 (racemic) [Example 162]", "system_under_test": "human DGKα (Homo sapiens (Human))", "label_value": "0 (no)"}
{"molecule": "CCN(C)c1cccc(CN2CCN(c3c(C#N)c(=O)n(C)c4ccc(Cl)nc34)CC2)c1 [Example 199]", "system_under_test": "human DGKα (Homo sapiens (Human))", "label_value": "1 (yes)"}

Shifting focus to the molecule that follows.
[in] Please let me know if CC(c1ccc(F)cc1)N1CCN(c2c([N+](=O)[O-])c(=O)n(C)c3ccc(C#N)nc23)CC1 (stereo not drawn) [Example 43] shows IC50 below 2000 nM.
[out] 1 (yes)

* * *

System: Jurkat AP1-luciferase Reporter
Assay: DGK AP1-Reporter Assay
Assay type: cell-based
Details: Homo sapiens, Jurkat, read-out: API-Luciferase Reporter IC50, Table 3
Simple rule here: IC50 less than 800 nM is Condition met, otherwise Condition not met.

Record excerpt, results attached:
{"compound": "CC(c1ccc(F)cc1)N1CCN(c2c([N+](=O)[O-])c(=O)n(C)c3ccc(C#N)nc23)CC1 (single isomer, unassigned) [Example 44]", "label_value": "Condition met"}
{"compound": "C#CCn1c(=O)c([N+](=O)[O-])c(N2CCN(C3CCc4ccc(OC)cc43)CC2)c2nc(C#N)ccc21 (stereo not drawn)", "label_value": "Condition met"}
{"compound": "CCC(c1ccc(F)cc1)N1CCN(c2c(C#N)c(=O)n(C)c3ccc(Br)nc23)CC1 (racemic)", "label_value": "Condition not met"}
{"compound": "Cn1c(=O)c([N+](=O)[O-])c(N2CCN(C(CO)c3ccc(F)cc3)CC2)c2nc(C#N)ccc21 (stereo not drawn)", "label_value": "Condition not met"}
{"compound": "CC(c1ccc(F)cc1)N1CCN(c2c(C#N)c(=O)n(C)c3ccc(Br)nc23)CC1 (racemic)", "label_value": "Condition not met"}
{"compound": "C#CCn1c(=O)c(C#N)c(N2CCN(Cc3c(C)cc(C)cc3O)CC2)c2nc(Br)ccc21", "label_value": "Condition met"}
{"compound": "Cn1c(=O)c([N+](=O)[O-])c(N2CCN(C(c3ccccc3)c3ccccc3O)CC2)c2nc(Br)ccc21 (single isomer, unassigned)", "label_value": "Condition met"}
{"compound": "C#CCn1c(=O)c([N+](=O)[O-])c(N2CCN(C(CC)c3ccc(F)cc3)CC2)c2nc(C#N)ccc21 (single isomer, unassigned) [Example 141]", "label_value": "Condition met"}

[in] Please let me know if COc1cc(F)ccc1C(c1ccc(F)cc1)N1CCN(c2c(C#N)c(=O)n(C)c3ccc(Br)nc23)CC1 (single isomer, unassigned) [Example 17] shows IC50 below 800 nM.
[out] Condition met

[in] In the record for Cn1c(=O)c(C#N)c(N2CCN(Cc3ccccc3NS(C)(=O)=O)CC2)c2nc(Br)ccc21 , is IC50 less than 800 nM?
[out] Condition not met

[in] Field: below-cutoff. Rule: recorded IC50 strictly less than 800 nM. Subject: Cn1c(=O)c(C#N)c(N2CCN(Cc3c(F)cccc3F)CC2)c2nc(Cl)ccc21
[out] Condition not met

* * *

Target: human DGKζ (Homo sapiens (Human), UniProt Q13574)
Sequence (Q13574 other isoform, or with tags, fused parts or gaps): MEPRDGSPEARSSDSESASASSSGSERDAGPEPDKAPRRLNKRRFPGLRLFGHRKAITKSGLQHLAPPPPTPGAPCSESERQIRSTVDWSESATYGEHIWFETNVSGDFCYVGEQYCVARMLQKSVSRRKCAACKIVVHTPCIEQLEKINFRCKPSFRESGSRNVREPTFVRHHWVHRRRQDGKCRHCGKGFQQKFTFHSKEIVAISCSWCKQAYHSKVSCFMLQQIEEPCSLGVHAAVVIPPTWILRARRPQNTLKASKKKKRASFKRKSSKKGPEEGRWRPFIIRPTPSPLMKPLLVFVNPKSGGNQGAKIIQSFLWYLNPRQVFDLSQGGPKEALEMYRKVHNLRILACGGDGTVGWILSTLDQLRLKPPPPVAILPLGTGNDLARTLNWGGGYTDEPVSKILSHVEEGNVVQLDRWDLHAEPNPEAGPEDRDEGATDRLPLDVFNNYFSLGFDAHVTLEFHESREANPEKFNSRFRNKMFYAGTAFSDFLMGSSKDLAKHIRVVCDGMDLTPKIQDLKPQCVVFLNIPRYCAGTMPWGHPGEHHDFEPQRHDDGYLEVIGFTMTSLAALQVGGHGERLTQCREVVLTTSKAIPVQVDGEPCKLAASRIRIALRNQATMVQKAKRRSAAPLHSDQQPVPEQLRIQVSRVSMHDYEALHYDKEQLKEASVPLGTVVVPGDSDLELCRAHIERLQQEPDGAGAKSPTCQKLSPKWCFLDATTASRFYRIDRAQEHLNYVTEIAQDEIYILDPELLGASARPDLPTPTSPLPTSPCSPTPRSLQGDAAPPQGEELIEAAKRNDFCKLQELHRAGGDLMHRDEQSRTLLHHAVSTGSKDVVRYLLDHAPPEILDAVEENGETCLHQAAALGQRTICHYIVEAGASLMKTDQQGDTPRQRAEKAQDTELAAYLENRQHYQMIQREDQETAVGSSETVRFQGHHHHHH
Assay: DGKζ assay (detergent/lipid micelle substrate)
Format: biochemical
Conditions: detergent/lipid micelle substrate; read-out: DGKζ IC50
value_type: IC50

Sample answers from the record:
{"compound": "Cn1c(=O)c(C#N)c(N2CCN(Cc3cccc(F)c3O)CC2)c2nc(Cl)ccc21", "IC50": "> 240 µM"}
{"compound": "Cn1c(=O)c([N+](=O)[O-])c(N2CCN(C(c3ccccc3)c3ccccc3O)CC2)c2nc(Br)ccc21 (single isomer, unassigned) [Example 78]", "IC50": "> 240 µM"}
{"compound": "Cc1ccc(O)c(CN2CCN(c3c(C#N)c(=O)n(C)c4ccc(Cl)nc34)CC2)c1", "IC50": "27 µM"}
{"compound": "COCCn1c(=O)c(C#N)c(N2CCN(C(c3ccc(F)cc3)c3ccccc3O)CC2)c2nc(Br)ccc21 (stereo not shown)", "IC50": "21 µM"}
{"compound": "COc1cccc(C)c1C(c1ccc(F)cc1)N1CCN(c2c([N+](=O)[O-])c(=O)n(C)c3ccc(Br)nc23)CC1 (single isomer, unassigned) [Example 60]", "IC50": "> 240 µM"}

I have 2 compounds here; please give me IC50 for each one.
1. COc1ccc(CN2CCN(c3c(C#N)c(=O)n(C)c4ccc(Cl)nc34)CC2)cc1O
2. Cn1c(=O)c(C#N)c(N2CCN(Cc3cccc(Cl)c3)CC2)c2nc(Cl)ccc21

[out]
["> 240 µM", "> 81 µM"]

* * *

Target: human DGKζ (Homo sapiens (Human))
Assay: DGKζ assay (detergent/lipid micelle substrate)
Format: biochemical
Conditions: detergent/lipid micelle substrate; read-out: DGKζ IC50
value_type: IC50 (µM)
Numbers only, in µM.

Kindly give each listed record's IC50.
1. Cn1c(=O)c([N+](=O)[O-])c(N2CCN(C(c3ccccc3)c3ccccc3)CC2)c2nc(Br)ccc21 [Example 52]
2. COCCn1c(=O)c([N+](=O)[O-])c(N2CCN(C(c3ccc(F)cc3)c3ccc(F)cc3)CC2)c2nc(C#N)ccc21 [Example 147]
3. C#CCn1c(=O)c([N+](=O)[O-])c(N2CCN(C(c3ccc(F)cc3)c3ccccc3OC)CC2)c2nc(C#N)ccc21 (single isomer, unassigned) [Example 130]
4. N#CCn1c(=O)c(C#N)c(N2CCN(C(c3ccc(F)cc3)c3ccc(F)cc3)CC2)c2nc(Br)ccc21 [Example 153]

[out]
1. 150
2. 3.6
3. 1.9
4. 76

* * *

Test system: pre-activated CD4 T cells and Raji cells
Experiment: Raji CD4 T Cell IL2 Assay
Format: cell-based
I'd be grateful if you could share measured pIC50 for these entries.
Numbers only, as −log10 of the molar value.

Example entries begin here.
{"molecule": "C#CCOc1ccccc1C(c1ccc(F)cc1)N1CCN(c2c(C#N)c(=O)n(C)c3ccc(Br)nc23)CC1 (single isomer, unassigned) [Example 6]", "reported_value": 6.09}
{"molecule": "C#CCn1c(=O)c([N+](=O)[O-])c(N2CCN(C(c3ccc(F)cc3)c3ccc(F)cc3OC)CC2)c2nc(C#N)ccc21 (single isomer, unassigned) [Example 127]", "reported_value": 8.19}
{"molecule": "CCC(c1ccc(F)cc1)N1CCN(c2c(C#N)c(=O)n(C)c3ccc(Br)nc23)CC1 (single isomer, unassigned) [Example 26]", "reported_value": 6.85}
{"molecule": "CC(c1ccc(F)cc1)N1CCN(c2c(C#N)c(=O)n(C)c3ccc(Br)nc23)CC1 (single isomer, unassigned) [Example 24]", "reported_value": 7.92}
{"molecule": "COc1ccccc1C(c1ccc(F)cc1)N1CCN(c2c(C#N)c(=O)n(C)c3ccc(Br)nc23)CC1 (single isomer, unassigned) [Example 14]", "reported_value": 7.59}
{"molecule": "CC(C)C(c1ccc(F)cc1)N1CCN(c2c(C#N)c(=O)n(C)c3ccc(Cl)nc23)CC1 (single isomer, unassigned)", "reported_value": 6.39}
{"molecule": "Cn1c(=O)c([N+](=O)[O-])c(N2CCN(C(c3ccccc3)c3ccccc3O)CC2)c2nc(Br)ccc21 (single isomer, unassigned) [Example 79]", "reported_value": 7.17}
{"molecule": "Cn1c(=O)c([N+](=O)[O-])c(N2CCN(C(c3ccc(F)cc3)c3cccc(F)c3O)CC2)c2nc(Br)ccc21 (single isomer, unassigned) [Example 76]", "reported_value": 7.17}
{"molecule": "Cc1cccc(OCc2cncc(C#N)c2)c1C(c1ccc(F)cc1)N1CCN(c2c([N+](=O)[O-])c(=O)n(C)c3ccc(Br)nc23)CC1 (single isomer, unassigned) [Example 89]", "reported_value": 5.55}

// next entry
[in] Please give the measured pIC50 for this molecule: COc1cccc(C)c1C(c1ccc(F)cc1)N1CCN(c2c([N+](=O)[O-])c(=O)n(C)c3ccc(Br)nc23)CC1 (single isomer, unassigned) [Example 61]
[out] 7.25
